The values you see were collected from patent US20220298160A1.

# Test system: HIV pseudotyped virus (NL4-3 provirus), WT
# measurement protocol: PSV assay (pseudotyped virus assay), WT
# test settings: Human immunodeficiency virus 1, NL43, in Homo sapiens, 72 h, read-out: WT IC50 (μM), PSV assay; U373 cells expressing human CD4 and CXCR4 or CCR5; luciferase signal after 3 days of culture
Attribute: log10 IC50
measured property: log10 IC50 (log10 of the value in µM)

molecule=C#C[C@]1(CO)O[C@@H](n2cnc3c(N)nc(F)nc32)C[C@@H]1OC(=O)N(CC)CC tested_on="HIV pseudotyped virus (NL4-3 provirus), WT" result=1.17
molecule=C#C[C@]1(COC(=O)NCCCCC)O[C@@H](n2cnc3c(N)nc(F)nc32)C[C@@H]1O tested_on="HIV pseudotyped virus (NL4-3 provirus), WT" result=0.42
molecule=C#C[C@]1(CO)O[C@@H](n2cnc3c(N)nc(F)nc32)C[C@@H]1OC(=O)OC(COC(=O)CCCCCCCC)COC(=O)CCCCCCCC tested_on="HIV pseudotyped virus (NL4-3 provirus), WT" result=-2.11
molecule="C#C[C@]1(CO)O[C@@H](n2cnc3c(NC(=O)OC(COCCCCC)COC(=O)CCCC)nc(F)nc32)C[C@@H]1O (single isomer, unassigned)" tested_on="HIV pseudotyped virus (NL4-3 provirus), WT" result=-2.02
molecule=C#C[C@]1(CO)O[C@@H](n2cnc3c(N)nc(F)nc32)C[C@@H]1OC(=O)NCCCCCCCCCCCCCCCCCC tested_on="HIV pseudotyped virus (NL4-3 provirus), WT" result=1.18
molecule=C#C[C@]1(COC(=O)NCCCCCCCCCCCC)O[C@@H](n2cnc3c(N)nc(F)nc32)C[C@@H]1O tested_on="HIV pseudotyped virus (NL4-3 provirus), WT" result=0.30
molecule=C#C[C@]1(CO)O[C@@H](n2cnc3c(N)nc(F)nc32)C[C@@H]1OC(=O)OC(COC(C)=O)COC(C)=O tested_on="HIV pseudotyped virus (NL4-3 provirus), WT" result=-1.97
molecule=C#C[C@]1(COC(=O)N(CC)CC)O[C@@H](n2cnc3c(N)nc(F)nc32)C[C@@H]1O tested_on="HIV pseudotyped virus (NL4-3 provirus), WT" result=0.11
molecule=C#C[C@]1(CO)O[C@@H](n2cnc3c(N)nc(F)nc32)C[C@@H]1OC(=O)OC1COC(=O)CCCCCCCCCCCC(=O)OC1 tested_on="HIV pseudotyped virus (NL4-3 provirus), WT" result=-1.82
molecule=C#C[C@]1(CO)O[C@@H](n2cnc3c(N)nc(F)nc32)C[C@@H]1OC(=O)NC1CC1 tested_on="HIV pseudotyped virus (NL4-3 provirus), WT" result=0.17
molecule=C#C[C@]1(COC(=O)NC(C)(C)C)O[C@@H](n2cnc3c(N)nc(F)nc32)C[C@@H]1O tested_on="HIV pseudotyped virus (NL4-3 provirus), WT" result=-0.85
molecule=C#C[C@]1(CO)O[C@@H](n2cnc3c(N)nc(F)nc32)C[C@@H]1OC(=O)OCc1ccc(OC(=O)CCCCCCCCCCCCCCCCCCC)cc1 tested_on="HIV pseudotyped virus (NL4-3 provirus), WT" result=0.36
molecule=C#C[C@]1(COC(=O)NC)O[C@@H](n2cnc3c(N)nc(F)nc32)C[C@@H]1O tested_on="HIV pseudotyped virus (NL4-3 provirus), WT" result=1.19
molecule=C#C[C@]1(CO)O[C@@H](n2cnc3c(N)nc(F)nc32)C[C@@H]1OC(=O)NCCCCC tested_on="HIV pseudotyped virus (NL4-3 provirus), WT" result=0.25
molecule=C#C[C@]1(CO)O[C@@H](n2cnc3c(N)nc(F)nc32)C[C@@H]1OC(=O)NC(C)C tested_on="HIV pseudotyped virus (NL4-3 provirus), WT" result=1.02
molecule=C#C[C@]1(COC(=O)NC(C)C)O[C@@H](n2cnc3c(N)nc(F)nc32)C[C@@H]1O tested_on="HIV pseudotyped virus (NL4-3 provirus), WT" result=-0.25
molecule=C#C[C@]1(CO)O[C@@H](n2cnc3c(N)nc(F)nc32)C[C@@H]1OC(=O)OCc1ccc(OC(=O)CCCCCCCCCCCCC)cc1 tested_on="HIV pseudotyped virus (NL4-3 provirus), WT" result=-1.77
molecule=C#C[C@]1(COC(=O)OCc2ccc(OC(=O)CCCCCCCCCCCCC)cc2)O[C@@H](n2cnc3c(N)nc(F)nc32)C[C@@H]1O tested_on="HIV pseudotyped virus (NL4-3 provirus), WT" result=-2.14
molecule=C#C[C@]1(COC(=O)OC(COC(=O)CCCCCCCC)COC(=O)CCCCCCCC)O[C@@H](n2cnc3c(N)nc(F)nc32)C[C@@H]1O tested_on="HIV pseudotyped virus (NL4-3 provirus), WT" result=-2.31
molecule=C#C[C@]1(CO)O[C@@H](n2cnc3c(N)nc(F)nc32)C[C@@H]1OC(=O)OC(COC(=O)CCCC)COC(=O)CCCC tested_on="HIV pseudotyped virus (NL4-3 provirus), WT" result=-2.11
molecule=C#C[C@]1(CO)O[C@@H](n2cnc3c(NC(=O)OC(COC(=O)CCCCCCCC)COC(=O)CCCCCCCC)nc(F)nc32)C[C@@H]1O tested_on="HIV pseudotyped virus (NL4-3 provirus), WT" result=-2.27
molecule=C#C[C@]1(CO)O[C@@H](n2cnc3c(NC(=O)OC(COC(=O)CCCC)COC(=O)CCCC)nc(F)nc32)C[C@@H]1O tested_on="HIV pseudotyped virus (NL4-3 provirus), WT" result=-2.12
molecule=C#C[C@]1(CO)O[C@@H](n2cnc3c(NC(=O)OC4COC(=O)CCCCCCCCCCCC(=O)OC4)nc(F)nc32)C[C@@H]1O tested_on="HIV pseudotyped virus (NL4-3 provirus), WT" result=-1.88
molecule=C#C[C@]1(CO)O[C@@H](n2cnc3c(N)nc(F)nc32)C[C@@H]1OC(=O)NCC(=O)OC(C)(C)C tested_on="HIV pseudotyped virus (NL4-3 provirus), WT" result=1.21
molecule=C#C[C@]1(CO)O[C@@H](n2cnc3c(N)nc(F)nc32)C[C@@H]1OC(=O)N1CCC(C)CC1 tested_on="HIV pseudotyped virus (NL4-3 provirus), WT" result=1.07

====

# System: HIV pseudotyped virus (NL4-3 provirus), WT
# measurement protocol: PSV assay (pseudotyped virus assay), WT
# test settings: Human immunodeficiency virus 1, NL43, in Homo sapiens, 72 h, read-out: WT IC50 (μM), PSV assay; U373 cells expressing human CD4 and CXCR4 or CCR5; luciferase signal after 3 days of culture
measured property: log10 IC50 (log10 of the value in µM)

molecule=C#C[C@]1(CO)O[C@@H](n2cnc3c(N)nc(F)nc32)C[C@@H]1OC(=O)NC tested_on="HIV pseudotyped virus (NL4-3 provirus), WT" result=0.31
molecule="C#C[C@]1(CO)O[C@@H](n2cnc3c(NC(=O)OC(COCCCCCCCCC)COC(=O)CCCCCCCC)nc(F)nc32)C[C@@H]1O (single isomer, unassigned)" tested_on="HIV pseudotyped virus (NL4-3 provirus), WT" result=-1.95
molecule=C#C[C@]1(COC(=O)OCc2ccc(OC(=O)CCCCCCCCCCCCCCCCCCC)cc2)O[C@@H](n2cnc3c(N)nc(F)nc32)C[C@@H]1O tested_on="HIV pseudotyped virus (NL4-3 provirus), WT" result=0.19
molecule=C#C[C@]1(COC(=O)OC2COC(=O)CCCCCCCCCCCC(=O)OC2)O[C@@H](n2cnc3c(N)nc(F)nc32)C[C@@H]1O tested_on="HIV pseudotyped virus (NL4-3 provirus), WT" result=-2.01
molecule=C#C[C@]1(CO)O[C@@H](n2cnc3c(N)nc(F)nc32)C[C@@H]1OC(=O)NCC(=O)OCC tested_on="HIV pseudotyped virus (NL4-3 provirus), WT" result=0.07

====

Overview of recorded IC50 for various compounds
# System: HIV pseudotyped virus (NL4-3 provirus), WT
# measurement protocol: PSV assay (pseudotyped virus assay), WT
# test settings: Human immunodeficiency virus 1, NL43, in Homo sapiens, 72 h, read-out: WT IC50 (μM), PSV assay; U373 cells expressing human CD4 and CXCR4 or CCR5; luciferase signal after 3 days of culture
measured property: IC50

structure_string=C#C[C@]1(COC(=O)NCCCCCCCCCCCCCCCCCC)O[C@@H](n2cnc3c(N)nc(F)nc32)C[C@@H]1O tested_on="HIV pseudotyped virus (NL4-3 provirus), WT" measured_property=IC50 result="> 25 µM"
structure_string=C#C[C@]1(CO)O[C@@H](n2cnc3c(N)nc(F)nc32)C[C@@H]1OC(=O)NC(C)(C)C tested_on="HIV pseudotyped virus (NL4-3 provirus), WT" measured_property=IC50 result="> 25 µM"
structure_string=C#C[C@]1(COC(=O)NCCCCCCCC)O[C@@H](n2cnc3c(N)nc(F)nc32)C[C@@H]1O tested_on="HIV pseudotyped virus (NL4-3 provirus), WT" measured_property=IC50 result="> 25 µM"
structure_string=C#C[C@]1(CO)O[C@@H](n2cnc3c(N)nc(F)nc32)C[C@@H]1OC(=O)NCCCCCCCC tested_on="HIV pseudotyped virus (NL4-3 provirus), WT" measured_property=IC50 result="> 15 µM"
structure_string=C#C[C@]1(CO)O[C@@H](n2cnc3c(N)nc(F)nc32)C[C@@H]1OC(=O)NCC(=O)OCCCCC tested_on="HIV pseudotyped virus (NL4-3 provirus), WT" measured_property=IC50 result="> 25 µM"
